System: SNB-19
Assay: NCI tumour cell line growth inhibition, 48 h
Activity calls are given as the source filed them. Rule as the data show it: active = GI50 up to about 1.1 µM and inactive = higher.
Answer with one of the outcomes active, inactive

Look over these answered cases.
[
  {
    "molecule": "CC1=C2C(O)C(C(C)C(=O)NCC(C)C)CCC2(C)C=CC1=O (centres undefined)",
    "labelValue": "inactive"
  },
  {
    "molecule": "CN(C)CC(C)(C)C(=O)/C=C/c1ccccc1",
    "labelValue": "inactive"
  },
  {
    "molecule": "Oc1nc(-c2cccc(F)c2)nc2ccccc12",
    "labelValue": "inactive"
  },
  {
    "molecule": "NC(=S)NN=C1Cc2ccccc2C1",
    "labelValue": "inactive"
  },
  {
    "molecule": "CC1(C)C(=O)C(C)(C)C1=NNC(N)=S",
    "labelValue": "inactive"
  }
]

Call for entry `CCN(CC)c1ccc(/N=N\c2ccc(-c3nc4ccc[n+](C)c4s3)cc2)cc1` : inactive

* * *

Recorded measurements of GI50, one per entry
Test system: OVCAR-4
Experiment: NCI tumour cell line growth inhibition, 48 h
The source made the active and inactive calls. Rule as the data show it: active = GI50 up to about 1.1 µM and inactive = higher.

[
  {
    "molecule": "NC(=S)N/N=C(/CC(=O)c1ccccc1)C(=O)Nc1ccc(Cl)c(Cl)c1",
    "parameterMeasured": "GI50",
    "reported": "57.3 µM (inactive)"
  }
]

GET /values?readout=GI50&item= NC1(C(=O)O)CCC(C(=O)O)CC1 (stereo unspecified) > 100 µM (inactive)

GET /values?readout=GI50&item= CC/C(C)=C1\OC(=O)C(C)C(O)C(Cc2cccnc2)NC(=O)C(NC(=O)c2ncccc2O)C(C)OC1=O (stereo unspecified) > 100 µM (inactive)

GET /values?readout=GI50&item= `N=C(NCc1ccccc1)N/N=C\c1ccnc2ccccc12` 11.7 µM (inactive)

GET /values?readout=GI50&item= `CCOC(=O)C(=O)Nc1c(C)cccc1CC` > 100 µM (inactive)

GET /values?readout=GI50&item= CCOC(=O)C1C(NC(N)=O)N(Cc2ccccc2)C(=O)N1Cc1ccccc1 (stereo unspecified) > 100 µM (inactive)

GET /values?readout=GI50&item= `Cn1ccnc1Sc1ccc(/C=N/NC(=O)c2ccccc2O)cc1[N+](=O)[O-]` 72.6 µM (inactive)

GET /values?readout=GI50&item= `CCc1oc2ccc(OC)c3c2c1C=CC=C3` > 100 µM (inactive)

* * *

System: M14
Assay: NCI tumour cell line growth inhibition, 48 h
The source made the active and inactive calls. No stated cut-off is given here; in the data, active = GI50 up to about 1.1 µM and inactive = higher.
Answer with one of the outcomes active, inactive

[
  {
    "compound": "CC1=NC2=Nc3nc(C)cc[n+]3CN2C=C1",
    "labelValue": "inactive"
  },
  {
    "compound": "C=CCOC(=O)/C(=C\\c1ccc(OC)c(OC)c1)c1ccc(OC)c(OC)c1",
    "labelValue": "inactive"
  },
  {
    "compound": "O=C1CCC[C@H]2O[C@@H](COCc3ccccc3)C[C@@H]12",
    "labelValue": "inactive"
  },
  {
    "compound": "O=S(=O)(c1ccccc1)C(CN1CCCCC1)S(=O)(=O)c1ccccc1",
    "labelValue": "inactive"
  },
  {
    "compound": "COc1ccccc1N1CCN(Cn2c(=O)oc3cccnc32)CC1",
    "labelValue": "inactive"
  }
]

Call for entry COC([C@@H](OC(=O)c1ccccc1)[C@H](OC(=O)c1ccccc1)C(O)COC(=O)c1ccccc1)n1cc(C)c(=O)[nH]c1=O (stereo not given in full) : inactive

Call for entry COc1ccc(N[C@H](C[S+]([O-])c2ccc(C)cc2)c2ccc(F)cc2)cc1 (stereo not given in full) : inactive

Call for entry CC(C)(C)C1(c2ccc(C3(c4ccccc4)Oc4ccccc4S3)[nH]2)Oc2ccccc2S1 (stereo not given) : inactive

Call for entry `CC(C)N(CCCNc1c2ccccc2nc2cccc([N+](=O)[O-])c12)C(C)C` : active

Call for entry `COc1ccc(C2=C(Cl)c3cc(OC)c(OC)cc3C2=O)cc1OC` : inactive

Call for entry N#C[BH2-][n+]1ccc(C(=O)NNC(c2ccccc2)C(F)(F)F)cc1 (stereo not given) : inactive

Call for entry NNC(=O)N/N=C1/C(=O)N(c2ccc(Cl)c(Cl)c2)C(=O)C(=O)C1c1nc2ccccc2o1 (stereo not given) : inactive

* * *

Recorded measurements of GI50, one per entry
Tested on: SF-295
Experiment: NCI tumour cell line growth inhibition, 48 h
Active and inactive are the calls of the source. No stated cut-off is given here; in the data, active = GI50 up to about 1.1 µM and inactive = higher.

Would you please look over these solved cases?
[
  {
    "compound": "NC(=O)CCC(N=C(N)c1csc(C2OC(CO)C(O)C2O)n1)C(=O)O (stereo not drawn)",
    "GI50": "> 100 µM (inactive)"
  },
  {
    "compound": "COc1cc(/C=C2/C(=O)N(C(=O)c3ccccc3O)N=C2C)cc(OC)c1OC",
    "GI50": "1.16 µM (inactive)"
  },
  {
    "compound": "O=C1CCC[C@H]2O[C@@H](COCc3ccccc3)C[C@@H]12",
    "GI50": "> 100 µM (inactive)"
  },
  {
    "compound": "c1ccc(CN(Cc2ccccn2)Cn2cccn2)nc1",
    "GI50": "62.7 µM (inactive)"
  },
  {
    "compound": "CC1(C)C2CCC(=O)C1C(OCc1ccccc1)C2 (stereo not drawn)",
    "GI50": "> 100 µM (inactive)"
  }
]

GET /values?readout=GI50&item= `NC1=Nc2ccccc2Sc2nccn21` 22.3 µM (inactive)

GET /values?readout=GI50&item= `NC(=O)C[C@H](NC(=O)C1(NC(=O)[C@H](Cc2ccc(CP(=O)(O)O)cc2)NC(=O)C(=O)O)CCCCC1)C(=O)NCCCc1cccc2ccccc12` > 10 µM (inactive)

GET /values?readout=GI50&item= CC(C)(SCc1ccccc1)C(N)C(=O)O (stereo not drawn) > 100 µM (inactive)

GET /values?readout=GI50&item= `O=C(O)c1c(O)c2cc(Br)ccc2oc1=O` > 100 µM (inactive)

* * *

System: SK-OV-3
Test: NCI tumour cell line growth inhibition, 48 h
Active and inactive are the calls of the source. No stated cut-off is given here; in the data, active = GI50 up to about 1.1 µM and inactive = higher.
Answer with one of the outcomes active, inactive

[
  {
    "molecule": "Cn1c(=O)c2c(ncn2CCNC(CO)C(O)c2ccc([N+](=O)[O-])cc2)n(C)c1=O (stereo not drawn)",
    "labelValue": "inactive"
  },
  {
    "molecule": "CC(C)N(CCCNc1c2ccccc2nc2cccc([N+](=O)[O-])c12)C(C)C",
    "labelValue": "active"
  }
]

Next molecule, please.
Call for entry C=CC1C(OC2OC(CO)C(O)C(O)C2O)OC=C(C(=O)OC)C1CC1CC(=O)CC(CCc2ccc(O)cc2)O1 (stereo not drawn) : inactive

* * *

Tested on: SK-MEL-28
Assay: NCI tumour cell line growth inhibition, 48 h
Active and inactive are the calls of the source. No stated cut-off is given here; in the data, active = GI50 up to about 1.1 µM and inactive = higher.
Answer with one of the outcomes active, inactive

Look over these answered cases.
[
  {
    "molecule": "CC(=O)N(O)Cc1ccccc1",
    "targetSystem": "SK-MEL-28",
    "labelValue": "inactive"
  },
  {
    "molecule": "COC1=C(OC)C(=O)C(Cc2c(Cl)nc3sc(C)cn23)=C(C)C1=O",
    "targetSystem": "SK-MEL-28",
    "labelValue": "inactive"
  },
  {
    "molecule": "CC1=NC2=Nc3nc(C)cc[n+]3CN2C=C1",
    "targetSystem": "SK-MEL-28",
    "labelValue": "inactive"
  },
  {
    "molecule": "CCOC(=O)c1c2c(n(Cc3ccccc3)c1C)C(=O)C(=O)c1ccccc1-2",
    "targetSystem": "SK-MEL-28",
    "labelValue": "active"
  },
  {
    "molecule": "Cc1ccc(NC(=O)C(=O)C(C(=O)c2ccc3ccccc3c2)C2OC(=O)c3ccccc32)cc1C (stereo unspecified)",
    "targetSystem": "SK-MEL-28",
    "labelValue": "inactive"
  }
]

Call for entry NC1(C(=O)O)CCC(C(=O)O)CC1 (stereo unspecified) : inactive

* * *

Test system: HT-29
Experiment: NCI tumour cell line growth inhibition, 48 h
The source made the active and inactive calls. No stated cut-off is given here; in the data, active = GI50 up to about 1.1 µM and inactive = higher.
Answer with one of the outcomes 1 (yes) = active, 0 (no) = inactive

Look over these answered cases.
[
  {
    "molecule": "Cc1cccc2c(N)c3cccc(C(=O)NCC[N+](C)(C)Cc4ccc([N+](=O)[O-])s4)c3nc12",
    "labelValue": "0 (no)"
  },
  {
    "molecule": "CC(C)CC(N)C(=O)Nc1ccc2ccccc2c1 (stereo unspecified)",
    "labelValue": "0 (no)"
  },
  {
    "molecule": "COc1cc(/C=C(/C#N)C(N)=O)ccc1O",
    "labelValue": "0 (no)"
  },
  {
    "molecule": "CC[N+]1(C)CCC(O)(/C=C/c2ccc(Cl)cc2)C(C(=O)/C=C/c2ccc(Cl)cc2)C1 (stereo unspecified)",
    "labelValue": "0 (no)"
  }
]

Call for entry COC([C@@H](OC(=O)c1ccccc1)[C@H](OC(=O)c1ccccc1)C(O)COC(=O)c1ccccc1)n1cc(C)c(=O)[nH]c1=O (stereo partly specified) : 0 (no)

Call for entry `COc1c2ccoc2c(OC)c2oc(=O)ccc12` : 0 (no)

Call for entry `CC(C)N(CCCNc1c2ccccc2nc2cccc([N+](=O)[O-])c12)C(C)C` : 1 (yes)

Call for entry `O=C(CO)CC(=O)C(=O)Nc1nc([N+](=O)[O-])cs1` : 0 (no)

Call for entry C=CCCCC1(C)CCCCNC1=O (stereo unspecified) : 0 (no)

Call for entry `CN(C)CC(C)(C)C(=O)/C=C/c1ccccc1` : 0 (no)

Call for entry `Nc1cc(C(=O)O)nc(O)n1` : 0 (no)

Call for entry `CC(=O)CCn1c(=S)sc2ccccc21` : 0 (no)
